Target: human TLR7 (Homo sapiens)
Sequence (Q9NYK1 27-1049): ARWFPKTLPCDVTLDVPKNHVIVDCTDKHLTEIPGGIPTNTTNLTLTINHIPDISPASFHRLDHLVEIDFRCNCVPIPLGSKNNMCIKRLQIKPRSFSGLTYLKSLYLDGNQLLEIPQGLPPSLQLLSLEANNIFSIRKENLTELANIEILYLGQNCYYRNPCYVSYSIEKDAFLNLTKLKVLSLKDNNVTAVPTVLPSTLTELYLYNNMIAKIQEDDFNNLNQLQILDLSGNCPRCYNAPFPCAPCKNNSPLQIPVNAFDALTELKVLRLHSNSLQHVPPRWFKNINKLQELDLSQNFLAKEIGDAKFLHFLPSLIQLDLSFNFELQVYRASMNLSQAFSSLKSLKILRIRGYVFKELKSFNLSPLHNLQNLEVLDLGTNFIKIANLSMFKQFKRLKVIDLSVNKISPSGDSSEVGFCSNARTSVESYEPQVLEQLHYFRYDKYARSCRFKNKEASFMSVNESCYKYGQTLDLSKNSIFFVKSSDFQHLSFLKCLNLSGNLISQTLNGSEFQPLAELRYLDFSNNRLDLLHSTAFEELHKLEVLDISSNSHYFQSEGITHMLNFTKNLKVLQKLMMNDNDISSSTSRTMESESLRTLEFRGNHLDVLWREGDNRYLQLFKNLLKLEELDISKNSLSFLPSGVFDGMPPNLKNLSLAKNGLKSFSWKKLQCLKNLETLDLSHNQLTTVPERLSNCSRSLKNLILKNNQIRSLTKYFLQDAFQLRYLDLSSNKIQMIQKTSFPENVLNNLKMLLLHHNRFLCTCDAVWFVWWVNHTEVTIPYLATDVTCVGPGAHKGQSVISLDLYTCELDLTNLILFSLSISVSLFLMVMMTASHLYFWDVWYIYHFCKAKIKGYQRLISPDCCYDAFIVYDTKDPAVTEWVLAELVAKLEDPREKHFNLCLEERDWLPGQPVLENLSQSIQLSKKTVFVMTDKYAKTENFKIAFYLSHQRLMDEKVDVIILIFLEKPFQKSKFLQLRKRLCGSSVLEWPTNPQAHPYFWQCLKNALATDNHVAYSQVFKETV
Experiment: TLR7 inhibition reporter assay (HEK-Blue cells, SEAP reporter)
Settings: HEK-Blue cells overexpressing human TLR7, stimulated with gardiquimod 7.5 μM, 22 hour incubation
pIC50: −log10 of the molar value.
Result Type: pIC50

[I] Cc1nc(-c2ccc(N3CCN(C4CCOCC4)CC3)cc2)cc2c1cc(-c1ccc(S(C)(=O)=O)cc1)n2C
[II] COc1ccc(-c2c(C)[nH]c3cnc(C4CCN(C(=O)CN5CCCCC5)CC4)cc23)cc1OC
Problem: Hey, which is lower on measured pIC50, I or II ? // return label of chosen record
Solution: I

----------
Molecular target: human TLR9 (Homo sapiens, UniProt Q9NR96)
Sequence (Q9NR96 26-1032): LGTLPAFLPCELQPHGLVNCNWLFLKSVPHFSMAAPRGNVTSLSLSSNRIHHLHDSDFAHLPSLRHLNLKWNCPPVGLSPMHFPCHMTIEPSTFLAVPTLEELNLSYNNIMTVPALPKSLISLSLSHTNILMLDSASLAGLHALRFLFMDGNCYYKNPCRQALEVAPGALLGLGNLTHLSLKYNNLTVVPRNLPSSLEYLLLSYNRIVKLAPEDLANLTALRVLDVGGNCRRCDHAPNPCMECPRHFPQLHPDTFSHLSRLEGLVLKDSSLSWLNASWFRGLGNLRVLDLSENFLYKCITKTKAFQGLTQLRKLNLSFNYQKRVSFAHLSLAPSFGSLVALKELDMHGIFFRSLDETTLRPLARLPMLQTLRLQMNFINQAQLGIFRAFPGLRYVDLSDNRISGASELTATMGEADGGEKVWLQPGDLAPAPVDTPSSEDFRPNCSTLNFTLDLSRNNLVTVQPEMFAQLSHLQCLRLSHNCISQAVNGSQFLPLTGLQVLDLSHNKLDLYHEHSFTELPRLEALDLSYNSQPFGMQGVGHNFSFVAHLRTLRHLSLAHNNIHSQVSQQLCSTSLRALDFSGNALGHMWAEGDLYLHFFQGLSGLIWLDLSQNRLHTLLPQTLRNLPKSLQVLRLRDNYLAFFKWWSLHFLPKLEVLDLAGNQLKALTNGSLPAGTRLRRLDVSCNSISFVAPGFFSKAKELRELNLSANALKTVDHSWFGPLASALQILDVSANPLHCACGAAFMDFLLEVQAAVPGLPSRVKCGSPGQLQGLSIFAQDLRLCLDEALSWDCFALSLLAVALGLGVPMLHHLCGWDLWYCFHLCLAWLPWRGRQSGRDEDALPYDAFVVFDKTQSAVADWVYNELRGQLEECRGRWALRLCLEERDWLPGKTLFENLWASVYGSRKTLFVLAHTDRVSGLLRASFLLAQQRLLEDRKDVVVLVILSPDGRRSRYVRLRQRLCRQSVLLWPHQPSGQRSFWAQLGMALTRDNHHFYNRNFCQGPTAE
Assay: TLR9 inhibition reporter assay (HEK-Blue cells, SEAP reporter)
Conditions: HEK-Blue cells overexpressing human TLR9, stimulated with ODN2006 5 nM, 22 hour incubation
Result Type: IC50 (nM)

Known results for molecules:
>  <Molecule>
Cc1nc(-c2cccc(N3CCN(C4CC4)CC3)c2)cc2c1cc(-c1ccc(S(C)(=O)=O)cc1)n2C

>  <Result Type>
IC50

>  <Experimental Result>
299

$$$$
>  <Molecule>
COCCN1C2CCC1CN(c1ccc(-c3cc4c(cc(-c5ccc(S(C)(=O)=O)cc5)n4C)c(C)n3)cc1F)C2

>  <Result Type>
IC50

>  <Experimental Result>
75

$$$$

[a] Cc1nc(-c2cc(F)c(N3CCNCC3)cc2F)cc2c1cc(-c1ccc(S(C)(=O)=O)cc1)n2C
[b] CC(C)(O)CN1CCN(Cc2ccc(-c3cc4c(cn3)cc(-c3ccc(S(C)(=O)=O)cc3)n4C3CC3)cc2)CC1
[c] COc1ccc(-c2c(C)n(C)c3cnc(-c4ccc(N5CCN(CCC(C)(C)O)CC5)cc4)cc23)cc1OC
[d] Cc1nc(-c2ccc(C3CCN(CCCO)CC3)cc2)cc2c1cc(-c1ccc(S(C)(=O)=O)cc1)n2C
[e] COc1ccc(-c2c(C)[nH]c3cnc(C4CCN(C(=O)CN(C)C)CC4)cc23)cc1OC
Problem: Put these in order: smallest IC50 first, largest last. Your answer should be the labels, listed in the requested order.
Solution: c, a, b, d, e
(c: 27 nM, a: 79 nM, b: 115 nM, d: 236 nM, e: 1570 nM)
